target-under-test: CDK2 (Homo sapiens)
Construct: High-Throughput Measurement of Cellular Endogenous CDK2; endogenous in cells
procedure-details: Inhibition of CDK2: phospho-Rb (S807/811) HTRF measurement in OVCAR3 cells, 24 h
test-conditions: 24 h compound treatment, read-out: pRB_OVCAR3_24h
readout-kind: IC50

For orientation, consider the following solved cases.
>>> val("Cn1nc(N2CCC(=O)NC2=O)c2ccc(C3CCN(Cc4cc(S(=O)(=O)N5CCC(Nc6ncc(OC(F)F)cn6)CC5)ccc4C#N)CC3)cc21")
"100 to 500 nM"
>>> val("Cn1nc(N2CCC(=O)NC2=O)c2ccc(C3CCN(C[C@H]4CCCN(c5cccc(S(=O)(=O)N6CCC(Nc7ncc(OC(F)F)cn7)CC6)c5)C4)CC3)cc21")
"100 to 500 nM"
>>> val("Cn1nc(N2CCC(=O)NC2=O)c2ccc(C3CCN(CC4CCN(c5cc(F)cc(S(=O)(=O)N6CCC(Nc7ncc(OC(F)F)cn7)CC6)c5)CC4)CC3)cc21")
"100 to 500 nM"

Determine its reported IC50: "Cc1cnc(NC2CCN(S(=O)(=O)c3cccc(CN4CCC(c5ccc6c(N7CCC(=O)NC7=O)nn(C)c6c5)CC4)c3)CC2)nc1"
500 to 2500 nM

Please look at this compound and report its IC50: "Cn1nc(N2CCC(=O)NC2=O)c2ccc(C3CCN(CC4CCN(c5cc(S(=O)(=O)N6CCC(Nc7ncc(Cl)cn7)CC6)ccc5C#N)CC4)CC3)c(F)c21"
1 to 100 nM

State its IC50: Cn1c(=O)n(C2CCC(=O)NC2=O)c2cccc(C3CCN(CC4CCN(c5cc(C(F)(F)F)cc(S(=O)(=O)N6CCC(Nc7ncc(Cl)cn7)CC6)c5)CC4)CC3)c21 (stereo not drawn)
500 to 2500 nM

---

target-under-test: CDK2 (Homo sapiens)
Construct: High-Throughput Measurement of Cellular Endogenous CDK2; endogenous in cells; host or cells: OVCAR3
procedure-details: High-throughput HTRF measurement of cellular endogenous CDK2 level (degradation, DC50/Dmax) in OVCAR3 cells, 6 h
Format: cell-based
test-conditions: 6 h compound treatment, HTRF total CDK2, read-out: DC50_OVCAR3_6h
readout-kind: DC50

Below are worked cases with known answers.
>>> val("Cn1nc(N2CCC(=O)NC2=O)c2ccc(C3CCN(CC4CCN(c5cccc(S(=O)(=O)N6CCC(Nc7ncc(C(F)(F)F)cn7)CC6)c5)CC4)CC3)cc21")
"1 to 10 nM"
>>> val("Cn1nc(N2CCC(=O)NC2=O)c2ccc(C3CCN(Cc4cccc(S(=O)(=O)N5CCC(Nc6ncc(OC(F)F)cn6)CC5)c4)CC3)cc21")
"10 to 100 nM"
>>> val("Cc1ncsc1-c1ccc([C@H](C)NC(=O)[C@@H]2C[C@@H](O)CN2C(=O)[C@@H](NC(=O)C2(F)CC2)C(C)(C)SCC2CCN(Cc3cccc(S(=O)(=O)N4CCC(Nc5ncc(C(F)(F)F)cn5)CC4)c3)CC2)cc1")
"1 to 10 nM"
>>> val("Cn1nc(N2CCC(=O)NC2=O)c2ccc(C3CCN(CC4CCN(c5cccc(S(=O)(=O)N6CCC(Nc7ncc(C(F)(F)F)cn7)CC6)c5)CC4)CC3)c(F)c21")
"10 to 100 nM"
>>> val("C=Cc1cnc(NC2CCN(S(=O)(=O)c3cccc(CN4CCC(c5ccc6c(N7CCC(=O)NC7=O)nn(C)c6c5)CC4)c3)CC2)nc1")
"1 to 10 nM"

GET DC50 where system = CDK2 (Homo sapiens) and item = "Cn1nc(N2CCC(=O)NC2=O)c2ccc(C3CCN(CC#Cc4cccc(S(=O)(=O)N5CCC(Nc6ncc(Cl)cn6)CC5)c4)CC3)cc21"
10 to 100 nM

Tell me DC50 of Cn1c(=O)n(C2CCC(=O)NC2=O)c2cccc(C3CCN(CC4CCN(c5cc(F)cc(S(=O)(=O)N6CCC(Nc7ncc(OC(F)F)cn7)CC6)c5)CC4)CC3)c21 (stereo not shown) when tested on CDK2 (Homo sapiens).
1 to 10 nM

Jot down DC50 (CDK2 (Homo sapiens)) of Cn1c(=O)n(C2CCC(=O)NC2=O)c2cccc(C3CCN(Cc4cccc(S(=O)(=O)N5CCC(Nc6ncc(C(F)(F)F)cn6)CC5)c4)CC3)c21 (stereo not shown) .
1 to 10 nM

Return reported DC50 for target or system CDK2 (Homo sapiens), item Cn1nc(N2CCC(=O)NC2=O)c2ccc(C3CCN(Cc4cccc(S(=O)(=O)N5CCC(Nc6ncc(Cl)cn6)CC5)c4)CC3(F)F)cc21 (stereo not shown) .
10 to 100 nM

Please indicate recorded DC50 of "Cn1nc(N2CCC(=O)NC2=O)c2ccc(C3CCN(CCCc4cccc(S(=O)(=O)N5CCC(Nc6ncc(C(F)(F)F)cn6)CC5)c4)CC3)cc21" measured with CDK2 (Homo sapiens).
1 to 10 nM
